Reference for the values: patent US10968225B2

target_under_test: F508del-CFTR (Homo sapiens, UniProt P13569, DEL508-508)
Sequence (P13569 with tags, fused parts or gaps DEL508-508): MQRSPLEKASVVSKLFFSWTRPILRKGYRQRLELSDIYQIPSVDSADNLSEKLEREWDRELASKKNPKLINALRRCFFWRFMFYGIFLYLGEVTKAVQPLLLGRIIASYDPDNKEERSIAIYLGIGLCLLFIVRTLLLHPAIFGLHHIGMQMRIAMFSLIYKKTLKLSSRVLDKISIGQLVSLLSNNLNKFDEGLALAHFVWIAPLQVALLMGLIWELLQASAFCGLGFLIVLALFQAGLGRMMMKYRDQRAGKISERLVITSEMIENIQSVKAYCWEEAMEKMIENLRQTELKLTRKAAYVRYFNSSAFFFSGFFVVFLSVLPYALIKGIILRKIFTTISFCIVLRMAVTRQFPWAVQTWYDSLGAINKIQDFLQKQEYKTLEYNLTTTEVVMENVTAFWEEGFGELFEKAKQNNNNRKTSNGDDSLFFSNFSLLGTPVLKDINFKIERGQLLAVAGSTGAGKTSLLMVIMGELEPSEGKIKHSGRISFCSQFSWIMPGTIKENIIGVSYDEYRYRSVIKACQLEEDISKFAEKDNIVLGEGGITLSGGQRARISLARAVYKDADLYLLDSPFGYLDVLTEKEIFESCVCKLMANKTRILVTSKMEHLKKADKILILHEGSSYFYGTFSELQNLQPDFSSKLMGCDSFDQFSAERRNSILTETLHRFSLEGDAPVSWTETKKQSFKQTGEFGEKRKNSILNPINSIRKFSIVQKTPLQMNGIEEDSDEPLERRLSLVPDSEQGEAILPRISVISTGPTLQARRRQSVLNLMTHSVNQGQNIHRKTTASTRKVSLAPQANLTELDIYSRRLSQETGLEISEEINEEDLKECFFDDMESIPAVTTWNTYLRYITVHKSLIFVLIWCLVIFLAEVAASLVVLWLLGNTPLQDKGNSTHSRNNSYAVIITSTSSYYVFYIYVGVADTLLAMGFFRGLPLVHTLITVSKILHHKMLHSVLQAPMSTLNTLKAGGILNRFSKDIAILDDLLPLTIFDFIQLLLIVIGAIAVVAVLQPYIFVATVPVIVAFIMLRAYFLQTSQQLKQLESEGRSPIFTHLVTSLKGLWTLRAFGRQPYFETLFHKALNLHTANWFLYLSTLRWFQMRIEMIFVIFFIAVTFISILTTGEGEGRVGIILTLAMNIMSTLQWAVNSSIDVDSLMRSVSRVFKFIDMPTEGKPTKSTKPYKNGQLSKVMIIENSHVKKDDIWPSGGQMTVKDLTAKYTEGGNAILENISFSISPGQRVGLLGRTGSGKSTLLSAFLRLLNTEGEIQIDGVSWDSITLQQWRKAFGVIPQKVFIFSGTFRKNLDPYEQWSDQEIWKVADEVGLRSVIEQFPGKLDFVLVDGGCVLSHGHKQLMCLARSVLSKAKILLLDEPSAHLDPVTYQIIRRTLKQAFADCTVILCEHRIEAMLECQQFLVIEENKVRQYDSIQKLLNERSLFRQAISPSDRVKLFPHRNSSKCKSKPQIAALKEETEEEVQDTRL
experiment_notes: Short-circuit current recordings on human bronchial epithelial cells
Assay type: cell-based
Set-up: Human bronchial epithelial (HBE) cells obtained from CF patients (F508del/F508del genotype); endogenous in cells; host or cells: primary human bronchial epithelial cells from CF patients, F508del/F508del
condition_notes: compounds tested at 1.0 µM; HBE cells from CF patients (F508del/F508del); 24 hrs treatment; CPT-cAMP plus VX-770 minus CFTRinh-172
readout_type: activity on HBE cells (expressed as […]ICFTR)

> print(dat)
                           structure.smiles     recorded.measurement
1  CN1CCc2c(c(C(F)(F)F)nn2-c2cccc(C(=O)N(C)c3ccc4c(c3)OCO4)c2)C1  ++ (2 μA<[…]ICFTR<3.0 μA)
2  CN(C(=O)c1cccc(-n2nc(C(F)(F)F)c3c2CCN(C(=O)Nc2ccccc2)C3)c1)c1ccc2c(c1)OCO2  ++ (2 μA<[…]ICFTR<3.0 μA)
3  CN(C(=O)c1cccc(-n2nc(C(F)(F)F)c3c2CCN(C2CCC2)C3)c1)c1ccc2c(c1)OCO2  ++ (2 μA<[…]ICFTR<3.0 μA)
4  CN(C(=O)c1cccc(-n2nc(C(F)(F)F)c3c2CCN(C(=O)C(C)(C)C)C3)c1)c1ccc2c(c1)OCO2  ++ (2 μA<[…]ICFTR<3.0 μA)
5  COC(=O)c1cccc(CN2CCc3c(c(C(F)(F)F)nn3-c3cccc(C(=O)N(C)c4ccc5c(c4)OCO5)c3)C2)c1  ++ (2 μA<[…]ICFTR<3.0 μA)
